Catalogue of T/C readings, one per entry.
System: CCRF S-180
test_method_notes: Compound was tested in vivo for antitumor activity against murine sarcoma 180 in mice at 0.25 mg/kg dosage and efficacy is expressed as T/C (mice were implanted subcutaneously with tumor cells and the drug was dosed intravenously)
Format: functional, Mus musculus
condition_set: route intravenous
The answer should be a number; do not append a unit.

A selection of reference data follows.
COC(=O)c1c(C)[nH]c2c(OC(=O)N3CCN(C)CC3)cc3c(c12)[C@H](CBr)CN3C(=O)/C=C/c1ccc(OC)nc1.Cl 0.36
COC(=O)c1c(C)[nH]c2c(OC(=O)N3CCN(C)CC3)cc3c(c12)[C@H](CBr)CN3C(=O)/C=C/c1ccc(OC)cn1.Cl 0.5

Task: Field: T/C (CCRF S-180). Entry: COC(=O)c1c(C)[nH]c2c1[C@@]13C[C@@H]1CN(C(=O)/C=C/c1cnc(OC)nc1)C3=CC2=O
Output: 0.45

Task: Fill in the recorded T/C for this molecule, with CCRF S-180 as test system: COC(=O)c1c(C)[nH]c2c(OC(=O)N3CCN(C)CC3)cc3c(c12)[C@H](CBr)CN3C(=O)/C=C/c1ccc(OC)nn1.Cl
Output: 0.31

Task: Identify the measured T/C of COC(=O)c1c(C)[nH]c2c(OC(=O)N3CCN(C)CC3)cc3c(c12)[C@H](CBr)CN3C(=O)/C=C/c1cnc(OC)nc1.Cl for CCRF S-180.
Output: 0.26

Task: Provide the documented T/C with CCRF S-180 as the system for COC(=O)c1c(C)[nH]c2c1[C@@]13C[C@@H]1CN(C(=O)/C=C/c1ccc(OC)cc1)C3=CC2=O
Output: 0.34

###

Species: Mus musculus
test_method_notes: Compound was tested for hematotoxicity and the number of peripheral platelets of normal mice on day 7 (percent of control) was determined, expressed as percent of control
Type: functional
Property: Hematotoxicity; scope: individual molecules
Value and unit, in that order.

Completed entries (count: 3):
COC(=O)c1c(C)[nH]c2c(OC(=O)N3CCN(C)CC3)cc3c(c12)[C@H](CBr)CN3C(=O)/C=C/c1ccc(OC)nn1.Cl 51%
COC(=O)c1c(C)[nH]c2c(OC(=O)N3CCN(C)CC3)cc3c(c12)[C@H](CBr)CN3C(=O)/C=C/c1cnc(OC)nc1.Cl 26%
COC(=O)c1c(C)[nH]c2c1[C@@]13C[C@@H]1CN(C(=O)/C=C/c1ccc(OC)nc1)C3=CC2=O 50%

Task: Entry COC(=O)c1c(C)[nH]c2c1[C@@]13C[C@@H]1CN(C(=O)/C=C/c1cnc(OC)nc1)C3=CC2=O has what Hematotoxicity?
Output: 28%

Task: Using the record for COC(=O)c1c(C)[nH]c2c(OC(=O)N3CCN(C)CC3)cc3c(c12)[C@H](CBr)CN3C(=O)/C=C/c1ccc(OC)nc1.Cl , report its Hematotoxicity.
Output: 38%

Task: Hematotoxicity lookup needed for COC(=O)c1c(C)[nH]c2c(OC(=O)N3CCN(C)CC3)cc3c(c12)[C@H](CBr)CN3C(=O)/C=C/c1ccc(OC)cn1.Cl , thanks.
Output: 38%

Task: Which value of Hematotoxicity has been reported for COC(=O)c1c(C)[nH]c2c1[C@@]13C[C@@H]1CN(C(=O)/C=C/c1ccc(OC)cc1)C3=CC2=O in the records?
Output: 50%

###

test_method_notes: Aqueous solubility of the compound
Type: physicochemical
condition_set: water; read-out: S
As shown below, each of these compounds has a reported solubility value.

The examples below pair each entry with its known result.
COC(=O)c1c(C)[nH]c2c(OC(=O)N3CCN(C)CC3)cc3c(c12)[C@H](CBr)CN3C(=O)/C=C/c1ccc(OC)cn1.Cl > 20 mg/mL
COC(=O)c1c(C)[nH]c2c(OC(=O)N3CCN(C)CC3)cc3c(c12)[C@H](CBr)CN3C(=O)/C=C/c1ccc(OC)nc1.Cl > 20 mg/mL
COC(=O)c1c(C)[nH]c2c(OC(=O)N3CCN(C)CC3)cc3c(c12)[C@H](CBr)CN3C(=O)/C=C/c1ccc(OC)nn1.Cl > 20 mg/mL

Continue with the next compound.
Task: Value lookup for solubility; key = COC(=O)c1c(C)[nH]c2c(OC(=O)N3CCN(C)CC3)cc3c(c12)[C@H](CBr)CN3C(=O)/C=C/c1cnc(OC)nc1.Cl
Output: > 20 mg/mL
